ASSAY_EXPLANATION: Thermal decomposition onset (T5% onset) by TGA
Rule: satisfied for T5%onset not less than 200 °C, not satisfied for anything less.

MOLECULE	GROUP
CCCC[PH](CCCC)(CCCC)CC(=O)Oc1ccc(NC(C)=O)cc1	satisfied
CCN(CC)CC(=O)Nc1c(C)cccc1C.CN[C@@H](C)[C@H](O)c1ccccc1.O=C(O)c1ccccc1O [Example 23, Ephedrinium-lidocaine Salicylate]	not satisfied
CC(=O)Nc1ccc(OC(=O)C[N+]2(C)CCCC2)cc1.CC(O)C(=O)O	not satisfied
CC(C)=CCC/C(C)=C/COC(=O)Cn1cc[n+](C)c1 [Example 44]	not satisfied
CC(CN1c2ccccc2Sc2ccccc21)N(C)C.CN[C@@H](C)[C@H](O)c1ccccc1.O=C(O)c1ccccc1O (stereo not drawn) [Example 29, Promethazine-ephedrinium Salicylate]	not satisfied
CCCCC(CC)COC(=O)CC(C(=O)OCC(CC)CCCC)S(=O)(=O)O.CN[C@@H](C)[C@H](O)c1ccccc1 (stereo not drawn) [Example 59, Ephedrinium Docusate]	satisfied
CC(=O)Nc1ccc(OC(=O)C[n+]2ccccc2)cc1 [Example 37]	satisfied
COc1cccc(C2(O)CCCCC2CN(C)C)c1.Cc1ccc(Cl)c(Nc2ccccc2C(=O)O)c1Cl (stereo not drawn) [Example 50, Tramadolium Meclofenamate]	not satisfied
CC(=O)Nc1ccc(OC(=O)C[N+]2(C)CCCC2)cc1 [Example 36]	satisfied
CCCCC(CC)COC(=O)CC(C(=O)OCC(CC)CCCC)S(=O)(=O)[O-].CCCC[P+](CCO)(CCCC)CCCC (stereo not drawn) [Example 66, Tributylhydroxyethylphosphonium Docusate]	satisfied
CCCCC(CC)COC(=O)CC(C(=O)OCC(CC)CCCC)S(=O)(=O)O.CCN(CC)CCNC(=O)c1ccc(N)cc1 (stereo not drawn) [Example 63, Procainamide Docusate]	satisfied
CC(C)Cc1ccc(C(C)C(=O)O)cc1.CCN(CC)CCNC(=O)c1ccc(N)cc1 [Example 62, Procainamide Ibuprofenate]	not satisfied
CC(CN1c2ccccc2Sc2ccccc21)N(C)C.CCCCC(CC)COC(=O)CC(C(=O)OCC(CC)CCCC)S(=O)(=O)O (stereo not drawn) [Example 60, Promethazine Docusate]	satisfied

* * *

ASSAY_EXPLANATION: Thermal decomposition onset (T5% onset) by TGA
Classify as follows. Reported T5%onset greater than or equal to 200 °C: Y. Reported T5%onset below: N.

COMPOUND	GROUP
COc1cccc(C2(O)CCCCC2CN(C)C)c1.O=C(O)c1ccccc1O (stereo not shown) [Example 47, Tramadolium Salicylate]	Y
CC(CN1c2ccccc2Sc2ccccc21)N(C)C.CCCCC(CC)COC(=O)CC(C(=O)OCC(CC)CCCC)S(=O)(=O)O.CN[C@@H](C)[C@H](O)c1ccccc1 (stereo not shown) [Example 27, Promethazine-ephedrinium Docusate 1:1:1]	N
CC(C)Cc1ccc(C(C)C(=O)O)cc1.CN[C@@H](C)[C@H](O)c1ccccc1 (stereo not shown) [Example 57, Ephedrinium Ibuprofenate]	Y
CC(C)=CCC/C(C)=C/COC(=O)Cn1cc[n+](C)c1 [Example 43]	N
CCCCC(CC)COC(=O)CC(C(=O)OCC(CC)CCCC)S(=O)(=O)O.COc1cccc(C2(O)CCCCC2CN(C)C)c1 (stereo not shown) [Example 51, Tramadolium Docusate]	Y
CC(C)(Oc1ccc(Cl)cc1)C(=O)O.CN[C@@H](C)[C@H](O)c1ccccc1 [Eph:Clofib 1:1, Ephedrinium Clofibrate]	N
CC(C)=CCC/C(C)=C/COC(=O)CCC(=O)O	N
CCN(CC)CC(=O)Nc1c(C)cccc1C.COc1cccc(C2(O)CCCCC2CN(C)C)c1.O=C(O)c1ccccc1O (stereo not shown) [Example 26, Tramadolium-lidocaine Salicylate]	N
CC(C)Cc1ccc(C(C)C(=O)[O-])cc1.CCCC[P+](CCCC)(CCCC)CCCC [P(Bu)4Ibu 1:1, Tetrabutylphosphonium Ibuprofenate]	Y
CN[C@@H](C)[C@H](O)c1ccccc1.O=C(O)c1ccccc1O [Eph:Sal 1:1, Ephedrinium Salicylate]	N
CCN(CC)CC(=O)Nc1c(C)cccc1C.O=C(O)c1ccccc1O [Lid:Sal 1:1, Lidocainium Salicylate]	N
CC(C)Cc1ccc(C(C)C(=O)O)cc1.COc1cccc(C2(O)CCCCC2CN(C)C)c1 (racemic) [Example 48, Tramadolium rac-ibuprofenate]	N

* * *

ASSAY_EXPLANATION: Thermal decomposition onset (T5% onset) by TGA
READOUT: T5%onset (°C)

> print(dat)
                                   compound  number
1  CC(=O)Nc1ccc(OC(=O)C[n+]2ccccc2)cc1 [Example 33]     198
2     CC(=O)Nc1ccc(OC(=O)Cn2cc[n+](C)c2)cc1     200
3  CCN(CC)CCNC(=O)c1ccc(N)cc1.O=C(O)c1ccccc1O [Example 61, Procainamide Salicylate]     199
4  CCCCCCCCCCCCCCCC[n+]1ccccc1 [CetPy:Sal 1:1, Cetylpyridinium Salicylate]     206
5  CCCC[P+](CCCC)(CCCC)CC(=O)Oc1ccc(NC(C)=O)cc1     197
